- assay.method.text: MTT cell viability, mammary benign cells
- Assay type: cell-based
- condition.description: human, MCF10A cells (mammary benign cells), read-out: viable cells (MTT)
- Procedure: For the method of MTT, the cells were plated in 96-well sterile plates for cell culture with a cap at the density of 2 × 10^4 cells/well for treatments lasting 24 h and 1 × 10^4 cells/well for treatments lasting 48 h or more, completing the volume to 100 µL with culture medium. The plates were incubated for 8-16 h in an incubator at 37° C. and 5% CO2. […] After complete dissolution of the salts, the absorbance was read in a spectrophotometer at 570 nm with endpoint protocol. […]
endpoint: viability at 48 h

Endpoint output: viability at 48 h of H-AIPFYAFY-OH [Peptide B, [H)-AIPFYAFY-(OH]] . Value?
~85%
